Entries and their measured growth inhibition follow.
# test.details: NCI Yeast Anticancer Drug Screen. Data for the cln2 rad14 strain (AID 165);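 note: 0% = growth equal to vehicle treated cultures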
# run.conditions: S. cerevisiae cln2 rad14 strain, at 50.0 µM, active compounds read high
The panel holds about 79,000 compounds, 15% with a hit somewhere; the sample as a whole holds those more often. The source made the active and inactive calls. Cut-off read from the data, not from the text of the source: active = growth inhibition above about 70%; inactive = the rest. Where a SMILES comes first, the peptide text is derived from it. The star is where a group is joined. Cbz = O=C(OCc1ccccc1)*; OBn = c1ccc(CO*)cc1
parameter.measured: growth inhibition

>>> print(df.to_string())
                                    compound  parameter_measured            reading
 0  CCOC(=O)C1CCCCC1NC1CCCCC1C(=O)OCC (stereo unspecified)   growth inhibition  -14.2% (inactive)
 1            COC(=O)n1oc2c(Br)cc(Br)cc2c1=O   growth inhibition  -6.85% (inactive)
 2                      CCO[Si](C)(CCC#N)OCC   growth inhibition   30.9% (inactive)
 3  CCOC(=O)C1=C(C(=O)c2ccccc2)C(c2ccc(Cl)cc2Cl)C(C(=O)c2ccccc2)=C(C(=O)OCC)N1   growth inhibition  -3.45% (inactive)
 4  CC(C)OC(CCCl)c1ccc(Cl)cc1 (stereo unspecified)   growth inhibition    7.2% (inactive)
 5  CN1c2ccccc2N(C)C2C1N(C)c1ccccc1N2C (stereo unspecified)   growth inhibition   -1.8% (inactive)
 6                     O=C(/C=N/O)Nc1ccccc1I   growth inhibition   16.6% (inactive)
 7           O=C(O)CCCCCCCCC(=O)c1cc(O)ccc1O   growth inhibition  -7.25% (inactive)
 8    O=C(O)c1ccc2c(c1)S(=O)(=O)c1ccccc1C2=O   growth inhibition    9.6% (inactive)
 9          COc1cccc2c1CC/C(=C\c1ccccn1)C2=O   growth inhibition     97.8% (active)
10  O=C(NC(CO)C(=O)N1CCCC1C(=O)OCc1ccccc1)OCc1ccccc1 (stereo not drawn) (Cbz-Ser-Pro-OBn; configuration not given here)   growth inhibition   23.9% (inactive)
11  COc1cc(/C=C2\SC(=S)N(/C=C(/C#N)C(=O)c3ccc4ccccc4c3)C2=O)cc(OC)c1OC   growth inhibition   3.45% (inactive)
12  COc1ccccc1NC(=O)C1=C(C)NC(C)=C(C(=O)Nc2ccccc2OC)C1c1ccco1   growth inhibition    4.3% (inactive)
13  CC(O)CCNc1nnc2c3ccccc3n(C)c2n1 (stereo unspecified)   growth inhibition   44.2% (inactive)
14  Cc1ccc(S(=O)(=O)Oc2cc(-c3ccccc3)nc3ccccc23)cc1   growth inhibition   11.7% (inactive)
15  Cc1cc(=O)c2c(ccc3c(=O)cc(C)[nH]c32)[nH]1   growth inhibition  -52.2% (inactive)
